Assay: Aqueous solubility of the compound in DMSO at pH 6.8 by HPLC method
Format: physicochemical
endpointLabel: log10 solubility (log10 of the value in µg/mL)
Please be aware that the numbers have been log10-transformed from solubility in µg/mL.

Asked: Which log10 solubility value is on record for Cc1ccc(Oc2sc(C(N)=O)c3c2-c2sncc2CC3)cn1 ?
Given back: 1.36

----------
Experiment: Intrinsic clearance in human liver microsomes at 1 umol/l after 15 to 30 mins in presence of NADPH by LC-MS/MS analysis
Type: ADME, microsome
Conditions: read-out: CLH
endpointLabel: microsomal CLint at 1 µM (µL/min/mg)
Provide the reading as a plain figure in µL/min/mg.

Study these solved cases before continuing.
>>> testvalue("Cc1ccncc1Oc1sc(C(N)=O)c2c1-c1sncc1CC2")
65
>>> testvalue("NC(=O)c1sc(Oc2cccnc2)c2c1CCc1cnsc1-2")
55
>>> testvalue("CN(C)C(=O)c1ccc(Oc2sc(C(N)=O)c3c2-c2sncc2CC3)cn1")
36
>>> testvalue("COCCNC(=O)c1ccc(Oc2sc(C(N)=O)c3c2-c2sncc2CC3)cn1")
21
>>> testvalue("NC(=O)c1ccc(Oc2sc(C(N)=O)c3c2-c2sncc2CC3)cn1")
19
>>> testvalue("Cc1ncccc1Oc1sc(C(N)=O)c2c1-c1sncc1CC2")
86
>>> testvalue("CCOCCNC(=O)c1ccc(Oc2sc(C(N)=O)c3c2-c2sncc2CC3)cn1")
73
>>> testvalue("CNC(=O)c1ccc(Oc2sc(C(N)=O)c3c2-c2sncc2CC3)cn1")
23
>>> testvalue("CNc1ccc(Oc2sc(C(N)=O)c3c2-c2sncc2CC3)cn1")
127
>>> testvalue("NC(=O)c1sc(Oc2ccccn2)c2c1CCc1cnsc1-2")
101

Could you now look at the following compound, please?
Asked: Which microsomal CLint at 1 µM value is on record for CC(=O)Nc1ccc(Oc2sc(C(N)=O)c3c2-c2sncc2CC3)cn1 ?
Given back: 61

Value source: ChEMBL document CHEMBL4028808
